# System: D-263MG (Glioblastoma);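 note: after 72 h of two-drug dosing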
# protocolText: Bliss excess, mean over the matrix (fraction); higher = more synergy
quantityKind: Bliss excess

[[record]]
compound = "Cn1cnc2c(F)c(Nc3ccc(Br)cc3Cl)c(C(=O)NOCCO)cc21 [Selumetinib] + C=CCn1c(=O)c2cnc(Nc3ccc(N4CCN(C)CC4)cc3)nc2n1-c1cccc(C(C)(C)O)n1 [AZD1775] (first compound max 10 µM, partner max 1 µM)"
targetdesc = "D-263MG (Glioblastoma)"
result = -0.0567


* * *

The entries below come with measured combination Emax values attached.
# System: AMO-1 (Plasma Cell Myeloma)
# protocolText: combination Emax (second highest fraction inhibited in the dose matrix, 72 h); higher = more inhibition; extreme values may be limits of the assay
quantityKind: combination Emax

[[record]]
compound = "COc1cccc(OCCCN)c1-c1cc(Nc2cnc(C#N)cn2)n[nH]1 [Prexasertib] + O=C(c1cc(Cc2n[nH]c(=O)c3ccccc23)ccc1F)N1CCN(C(=O)C2CC2)CC1 [Olaparib] (first compound max 1 µM, 7x7, partner max 10 µM)"
measurednumber = 0.982

[[record]]
compound = "CC1(C)CCC(CN2CCN(c3ccc(C(=O)NS(=O)(=O)c4ccc(NCC5CCOCC5)c([N+](=O)[O-])c4)c(Oc4cnc5[nH]ccc5c4)c3)CC2)=C(c2ccc(Cl)cc2)C1 [Venetoclax] + COc1cc(Nc2ncc3c(n2)-c2ccc(Cl)cc2C(c2c(F)cccc2OC)=NC3)ccc1C(=O)O [Alisertib] (first compound max 1 µM, 7x7, partner max 10 µM)"
measurednumber = 0.868

